assay: qHTS assay to identify small molecule antagonists of the estrogen receptor alpha (ER-alpha) signaling pathway using the BG1 cell line (AID 743080); settings: BG1Luc4E2 ERE-luciferase antagonist mode, luminescence; series mostly up to 70.3 µM;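 also: BG1 cells stimulated with 17beta-estradiol alongside compound; nearly all actives have a fitted effect of over 25% in size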
Inconclusive results are not listed. The source made the active and inactive calls. Calls follow the shape of the full dose curve.
Please reply with one of these outcomes: active, inactive

What did this assay record as the result for N#CC1(N2CCCCC2)CCCCC1 ? inactive

I would be grateful if you could indicate the recorded call for O=C(Nc1ccccc1-c1ccc(Cl)cc1)c1cccnc1Cl . inactive

For this molecule, state the assay outcome: CC(N)Cc1ccc2c(c1)OCO2 (stereo not given) inactive

Tell me the recorded outcome of this test for COc1ccc(OC)c(C[C@H](C)N)c1 . inactive

// outcome(item) with item = c1ccccc1 inactive

What did this assay record as the result for COc1ccc2c3c1O[C@H]1[C@@H](O)C=C[C@H]4[C@@H](C2)NCC[C@@]341 ? inactive

Hi, do you know how Cc1ccccc1-n1c(C)nc2ccccc2c1=O came out in this test? inactive

What call does the record list for C[C@@H](N)C(=O)c1ccccc1 ? inactive

Recorded test call requested for O=C(C[C@@H]1NCCC[C@H]1O)Cn1cnc2cc(Br)c(Cl)cc2c1=O inactive

Hi, do you know how Clc1ccc(C(Cn2ccnc2)OCc2csc3c(Cl)cccc23)c(Cl)c1 (stereo not given) came out in this test? inactive

Dear all, I need the recorded test outcome for CCC1(c2cnc[nH]2)Cc2ccccc2C1 , thank you. inactive

Which outcome was entered for the molecule CCC(C)(S(=O)(=O)CC)S(=O)(=O)CC in this test? inactive

Answer briefly: the call reported for O=C(NC(=O)c1c(F)cccc1F)Nc1ccc(Cl)c(Oc2ncc(C(F)(F)F)cc2Cl)c1 in this assay. inactive

Answer briefly: the call reported for [S]=[Sb](=[S])[S][Sb](=[S])=[S] in this assay. inactive

Returns: the outcome recorded for CC1(C)S[C@@H]2[C@H](N)C(=O)N2[C@H]1C(=O)O in this assay. inactive

Entry S=C(S)N1CCNCC1 : call = ? inactive

Any idea what this test logged for CC(N)Cc1ccc(O)cc1 (stereo not given) ? inactive

Field: outcome | Entry: C=CCN(C1=NCCN1)c1c(Cl)cccc1Cl inactive

Write down the call the test reported for this molecule. Item: CN1[C@H]2CC[C@@H]1[C@@H](C(=O)O)[C@@H](OC(=O)c1ccccc1)C2 inactive

Please let me know the test result on file for COC([CH2][Hg])CNC(=O)c1ccccc1OCC(=O)O (stereo not given) . inactive

Hi, do you know how O=c1[nH]cc(N(CCCl)CCCl)c(=O)[nH]1 came out in this test? inactive

What was the test verdict on COc1ccc2c(c1)C13CCCC[C@@H]1C(C2)N(C)CC3 (stereo not given in full) ? inactive

Any idea what this test logged for O=P1(N(CCCl)CCCl)NC(OO)CCO1 (stereo not given) ? inactive

Test call, this molecule: OC[C@@H](O)[C@H]1O[C@@H]2O[C@@H](C(Cl)(Cl)Cl)O[C@@H]2[C@H]1O inactive

Give the logged outcome of this assay for the following molecule: N#CC(C#N)=Cc1cc(O)c(O)c(O)c1 inactive

Write down the call the test reported for this molecule. Item: CCN1C[C@]2(COC)[C@H](O)C[C@H](OC)[C@@]34[C@@H]5C[C@@]6(O)[C@H](OC(=O)c7ccccc7)[C@@H]5[C@@](OC(C)=O)([C@@H]([C@H](OC)[C@H]23)[C@@H]14)[C@@H](O)[C@@H]6OC inactive

Please indicate how the test categorized CC(=O)OCC(=O)[C@H]1CC[C@H]2[C@@H]3CC[C@H]4C[C@H](O)CC[C@]4(C)[C@H]3C(=O)C[C@]12C . inactive

What was the test verdict on C1CN(P2(N3CC3)=NP(N3CC3)(N3CC3)=NP(N3CC3)(N3CC3)=N2)CCO1 (stereo not given) ? inactive

Please indicate how the test categorized CCNC(C)Cc1cccc(C(F)(F)F)c1 (stereo not given) . inactive

# lookup: test call for O=C1OC2(c3cc(Br)c(O)cc3Oc3c2cc(Br)c(O)[c]3[Hg])c2ccccc21 (stereo not given) inactive

Hey, what did the test say about COC(=O)[C@H]1[C@@H](OC(=O)c2ccccc2)C[C@@H]2CC[C@H]1N2C ? inactive

What did this assay record as the result for ClC1=C(Cl)[C@]2(Cl)[C@@H]3[C@@H](Cl)[C@H]4O[C@H]4[C@@H]3C1(Cl)C2(Cl)Cl ? inactive

What outcome does the record of this test show for CC1COC(Cn2cncn2)(c2ccc(Oc3ccc(Cl)cc3)cc2Cl)O1 (stereo not given) ? active

Name the outcome recorded for C[C@H]1CC[C@]2(NC1)O[C@H]1C[C@H]3[C@@H]4CC[C@H]5C[C@@H](O)CC[C@]5(C)[C@H]4CC[C@]3(C)[C@H]1[C@@H]2C in the assay. inactive

Answer briefly: the call reported for CCOc1ccc2c3c1O[C@H]1[C@@H](O)C=C[C@H]4[C@@H](C2)N(C)CC[C@@]341 in this assay. inactive

Lab log entry: CCON=O — outcome as called in the assay? inactive

Record lookup: outcome of this test for CCCN1CCC[C@H](c2cccc(O)c2)C1 ? inactive

Which result was noted for this molecule in the test: CC(C)C[C@H](CN)CC(=O)O inactive

Given CN1C(=O)CC(=O)N(c2ccccc2)c2cc(Cl)ccc21 , state the outcome it received in this test. inactive

Given CC1(C)[C@H](C=C(Cl)Cl)[C@H]1C(=O)OCc1c(F)c(F)cc(F)c1F , state the outcome it received in this test. inactive

What is the recorded call for this molecule in the test? CCCCCCCCCC(=O)O[C@H]1CC[C@H]2[C@@H]3CCC4=CC(=O)CC[C@]4(C)[C@H]3CC[C@]12C inactive

I would be grateful if you could indicate the recorded call for Clc1ccc2c(c1)C(c1ccccc1)=NCc1nncn1-2 . inactive

Recorded test outcome, item COc1ccc(C(c2ccc(OC)cc2)C(Cl)(Cl)Cl)cc1 inactive

Would you mind telling me which call this test gave C[N+]1(C)[C@@H]2CC[C@H]1CC(OC(=O)c1c[nH]c3ccccc13)C2 (stereo not given in full) ? inactive

Could you kindly confirm the outcome this assay logged for CN1[C@@H]2CC[C@H]1CC(OC1c3ccccc3CCc3ccccc31)C2 (stereo not given in full) ? inactive
